This collection of values is drawn from ChEMBL document CHEMBL4385615.

target.entity: Serine/threonine-protein kinase B-raf (Homo sapiens)
Sequence (P15056 whole entry): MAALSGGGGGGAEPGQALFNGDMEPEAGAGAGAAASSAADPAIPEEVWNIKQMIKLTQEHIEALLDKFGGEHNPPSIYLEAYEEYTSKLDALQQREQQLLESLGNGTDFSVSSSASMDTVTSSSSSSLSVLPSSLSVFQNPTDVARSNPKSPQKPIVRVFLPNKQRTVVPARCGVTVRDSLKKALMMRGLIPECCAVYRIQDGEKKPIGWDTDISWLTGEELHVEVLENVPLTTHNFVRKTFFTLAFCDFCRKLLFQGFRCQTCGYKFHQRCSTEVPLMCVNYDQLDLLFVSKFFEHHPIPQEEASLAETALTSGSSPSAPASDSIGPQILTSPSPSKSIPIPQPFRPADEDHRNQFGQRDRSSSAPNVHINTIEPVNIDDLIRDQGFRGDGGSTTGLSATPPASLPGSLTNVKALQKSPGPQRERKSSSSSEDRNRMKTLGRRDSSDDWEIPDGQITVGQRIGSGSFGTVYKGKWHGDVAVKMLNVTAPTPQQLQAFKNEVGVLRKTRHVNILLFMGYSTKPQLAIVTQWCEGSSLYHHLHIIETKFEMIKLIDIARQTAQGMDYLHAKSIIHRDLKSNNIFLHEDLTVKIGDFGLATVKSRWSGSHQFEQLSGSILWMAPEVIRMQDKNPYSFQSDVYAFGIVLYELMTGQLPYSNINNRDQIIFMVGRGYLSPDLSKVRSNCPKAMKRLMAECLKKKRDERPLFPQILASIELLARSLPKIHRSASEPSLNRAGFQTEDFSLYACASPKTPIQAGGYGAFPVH
protocol.description: Binding affinity to BRAF (unknown origin) by intrinsic tryptophan fluorescence assay
run.parameters: read-out: Kd
measure.name: Kd
Answer format: number, then unit.

Query: Return Kd (reported value) for this molecule: CC[C@H](C)[C@H](NC(=O)[C@H](CC(N)=O)NC(=O)[C@@H](NC(=O)[C@H](Cc1cnc[nH]1)NC(=O)[C@H](CCCNC(=N)N)NC(=O)[C@@H](NC(=O)[C@H](CCCCN)NC(=O)[C@H](CCCNC(=N)N)NC(=O)[C@H](CC(C)C)NC(=O)[C@@H](NC(=O)CN)C(C)C)[C@@H](C)O)C(C)C)C(=O)N[C@@H](C)C(=O)N[C@@H](CC(C)C)C(=O)N[C@@H](Cc1ccccc1)C(=O)N[C@@H](CCSC)C(=O)NCC(=O)N[C@@H](Cc1ccc(O)cc1)C(=O)N[C@@H](CO)C(=O)N[C@H](C(=O)O)[C@@H](C)O
Result: 9.8 µM
